- System: NCI-H460 lung
Outcomes you can answer with include only these: active, inactive

CCCn1c2c(c3c(O)cccc31)C(=O)c1ccccc1-2	inactive

Switching to the query record.
Task: Can you look up the reported call for "COc1ccc2c(c1)nc(NNC(=O)c1cnccn1)c1cccn12" for me?
Output: active

====

- Test system: HCT-15 colon
- run.description: NCI tumour cell line growth inhibition, 48 h
Quick reference: TGI of the listed items.

These recorded examples may help you get a feel for the data.
ClC(Cl)=C(Cl)C1(Cl)CC1COCc1ccccc1 (centres undefined)	> 100 µM
C=C1C(=O)O[C@H]2[C@H]1CC/C(COC(=O)CCCCCC(=O)OC/C1=C/CC[C@@]3(C)O[C@H]3[C@H]3OC(=O)C(=C)[C@@H]3CC1)=C\CC[C@@]1(C)O[C@@H]21	3.81 µM
C[C@]12CC[C@H]3[C@@H](CCC4=CC(=O)C=C[C@@]43OC(=O)C(F)(F)F)[C@@H]1CCC2=O	> 100 µM
COC(=O)c1cc(-c2ccccc2)[nH]c1N/N=C/c1c(Cl)cccc1Cl	> 36 µM
Clc1sc(Cl)c2c1[C@@H](Cl)C[C@@H]2Cl	> 100 µM

Task: Name the recorded TGI of the molecule listed here: "O=C1NC(=O)c2ccccc2/C1=C/c1ccc2c(c1)OCO2"
Output: 31.8 µM

Task: Report measured TGI; entry is "CCCCCCCCCCCC1=NC(C)(C)CN1C(C)(C)CO"
Output: 4.74 µM

Task: Using the record for O=C(O)CCC(=O)OCN1C(=O)C2C3C=CC(C2C1=O)C1C2C(=O)N(COC(=O)CCC(=O)O)C(=O)C2C31 (centres undefined) , state its measured TGI.
Output: > 57 µM

Task: State, in one line, measured TGI of "CC(C)N(C(=O)c1cccc(C(=O)N(C(C)C)C(C)C)c1)C(C)C"
Output: > 100 µM

Task: Please report the measured TGI for "COc1cc2c(cc1OC)-c1ncc3c(OC)ccc(OC)c3c1C2"
Output: > 100 µM

Task: Indicate its recorded TGI; the molecule in question is "O=C(CCN1CCCC1)Nc1ccc2c(NCc3ccccc3)c3ccccc3nc2c1"
Output: 6.97 µM

Task: Check the records and state TGI for "CSC(=S)Nc1cc(C)cc(C)n1"
Output: > 31.6 µM

Task: Return reported TGI. Input molecule: "O=C(/C(=C(/O)c1ccccc1)c1nc2ccccc2sc1=O)c1ccccc1"
Output: > 100 µM
